Catalogue of IC50 values
system: p-CHK1 (Ser345); test: AlphaLISA SureFire Ultra p-CHK1 (Ser345) cellular assay in HT29 cells; type: cell-based; conditions: Homo sapiens, HT-29, 16 h at 37° C.

Check out these entries, answers already filled in.
{"columns": ["compound", "experimental_target", "IC50"],
 "data": [
  ["CN[C@@H]1CC[C@@H](Oc2cc(C)cc(F)c2-c2cc(Nc3cnc(C#N)cn3)n[nH]2)C1 [Example 5-3]", "p-CHK1 (Ser345)", "≤ 50 nM"],
  ["COc1cc(F)cc(O[C@H]2CC[C@H](N)CC2)c1-c1cc(Nc2cnc(C#N)cn2)n[nH]1 [Example 2-4]", "p-CHK1 (Ser345)", "≤ 50 nM"]
]}

For COc1cccc(OC2CCC(N)C2C)c1-c1cc(Nc2cnc(C#N)cn2)n[nH]1 (stereo not shown) [Example 1-47] the compound record lists IC50 as ≤ 50 nM

For COc1cc(Cl)cc(O[C@@H]2CC[C@H](N)C2)c1-c1cc(Nc2cnc(C#N)cn2)n[nH]1 [Example 1-29] the compound record lists IC50 as 100 to 500 nM

For CN[C@@H]1CC[C@@H](Oc2cc(Cl)cc(F)c2-c2cc(Nc3cnc(C#N)cn3)n[nH]2)C1 [Example 3-25] the compound record lists IC50 as 100 to 500 nM

For N#Cc1cnc(Nc2cc(-c3c(O[C@@H]4CC[C@@H](N)C4)ccc(F)c3F)[nH]n2)cn1 [Example 3-28] the compound record lists IC50 as 100 to 500 nM

For CN[C@H]1C[C@H](Oc2cccc(OC)c2-c2cc(Nc3cnc(C#N)cn3)n[nH]2)C1 [Example 1-16] the compound record lists IC50 as ≤ 50 nM

---

system: p-CHK1 (Ser345); experiment: AlphaLISA SureFire Ultra p-CHK1 (Ser345) cellular assay in HT29 cells; type: cell-based; conditions: Homo sapiens, HT-29, 16 h at 37° C.
Catalogue of IC50 values

{"columns": ["compound", "experimental_result"],
 "data": [
  ["Cc1ccc(O[C@H]2CC[C@H](N)C2)c(-c2cc(Nc3cnc(C#N)cn3)n[nH]2)n1 [Example 3-44]", "500 to 1000 nM"],
  ["N#Cc1cnc(Nc2cc(-c3ncccc3O[C@@H]3CC[C@@H](N)C3)[nH]n2)cn1 [Example 1-58]", "≤ 50 nM"],
  ["Cc1ccc(O[C@@H]2CC[C@H](N)C2)c(-c2cc(Nc3cnc(C#N)cn3)n[nH]2)c1F [Example 3-16]", "100 to 500 nM"],
  ["COc1cccc(O[C@@H]2CC[C@H](N(C)C)C2)c1-c1cc(Nc2cnc(C#N)cn2)n[nH]1 [Example 1-49]", "≤ 50 nM"],
  ["COc1cccc(O[C@H]2CC[C@@H]2N)c1-c1cc(Nc2cnc(C#N)cn2)n[nH]1 [Example 3-5]", "≤ 50 nM"]
]}

For COc1c(F)ccc(O[C@@H]2CC[C@H](N)C2)c1-c1cc(Nc2cnc(C#N)cn2)n[nH]1 [Example 1-26] the compound record lists IC50 as 50 to 100 nM

For Cc1cc(O[C@@H]2CC[C@H](N)C2)c(-c2cc(Nc3cnc(C#N)cn3)n[nH]2)nc1C [Example 3-48] the compound record lists IC50 as ≤ 50 nM

For N#Cc1cnc(Nc2cc(-c3ccccc3O[C@H]3C[C@H](N)C3)[nH]n2)cn1 [Example 1-9] the compound record lists IC50 as 100 to 500 nM

---

system: p-CHK1 (Ser345); experiment: AlphaLISA SureFire Ultra p-CHK1 (Ser345) cellular assay in HT29 cells; assay type: cell-based; conditions: Homo sapiens, HT-29, 16 h at 37° C.
Catalogue of IC50 values

Check out these entries, answers already filled in.
{"columns": ["smiles_input", "readout", "experimental_result"],
 "data": [
  ["CCCc1ccc(O[C@@H]2CC[C@H](N)C2)c(-c2cc(Nc3cnc(C#N)cn3)n[nH]2)n1", "IC50", "50 to 100 nM"],
  ["N#Cc1cnc(Nc2cc(-c3nc(C4CC4)ccc3O[C@@H]3CC[C@H](N)C3)[nH]n2)cn1", "IC50", "≤ 50 nM"],
  ["N#Cc1cnc(Nc2cc(-c3c(O[C@@H]4CC[C@@H](N)C4)ccc(Cl)c3F)[nH]n2)cn1", "IC50", "100 to 500 nM"]
]}

For CCOc1cccc(O[C@H]2C[C@H](N)C2)c1-c1cc(Nc2cnc(C#N)cn2)n[nH]1 the compound record lists IC50 as 100 to 500 nM

---

Catalogue of IC50 values
tested on: p-CHK1 (Ser345); test: AlphaLISA SureFire Ultra p-CHK1 (Ser345) cellular assay in HT29 cells; type: cell-based; settings: Homo sapiens, HT-29, 16 h at 37° C.

Check out these entries, answers already filled in.
{"columns": ["compound", "IC50"],
 "data": [
  ["CN[C@@H]1CC[C@@H](Oc2ccc(F)c(F)c2-c2cc(Nc3cnc(C#N)cn3)n[nH]2)C1 [Example 3-1]", "100 to 500 nM"],
  ["N#Cc1cnc(Nc2cc(-c3ncccc3O[C@H]3C[C@H](N)C3)[nH]n2)cn1 [Example 1-55]", "500 to 1000 nM"],
  ["COc1ccc(C)c(O[C@@H]2CC[C@H](N)C2)c1-c1cc(Nc2cnc(C#N)cn2)n[nH]1 [Example 4-3]", "> 1000 nM"]
]}

Read the next record carefully.
For COc1c(F)ccc(O[C@H]2CC[C@H](N)CC2)c1-c1cc(Nc2cnc(C#N)cn2)n[nH]1 [Example 1-20] the compound record lists IC50 as 100 to 500 nM

---

test system: p-CHK1 (Ser345); experiment: AlphaLISA SureFire Ultra p-CHK1 (Ser345) cellular assay in HT29 cells; assay type: cell-based; settings: Homo sapiens, HT-29, 16 h at 37° C.
pIC50: −log10 of the molar value.
Catalogue of pIC50 values

Check out these entries, answers already filled in.
{"columns": ["compound", "pIC50"],
 "data": [
  ["COc1cccc(O[C@H]2CC[C@H](N)CC2)c1-c1cc(Nc2cnc(C#N)cn2)n[nH]1 [Example 1-1]", "7.00 to 7.30"],
  ["COc1ccc(F)c(O[C@@H]2CC[C@H](N)C2)c1-c1cc(Nc2cnc(C#N)cn2)n[nH]1 [Example 1-27]", "6.30 to 7.00"],
  ["CN[C@H]1CC[C@@H](Oc2cccc(OC)c2-c2cc(Nc3cnc(C#N)cn3)n[nH]2)C1 [Example 1-46]", "≥ 7.30"]
]}

For N#Cc1cnc(Nc2cc(-c3ccccc3O[C@@H]3CC[C@@H](N)C3)[nH]n2)cn1 [Example 1-53] the compound record lists pIC50 as 7.00 to 7.30

For N#Cc1cnc(Nc2cc(-c3c(F)cccc3O[C@H]3CCCC[C@H](N)C3)[nH]n2)cn1 [Example 3-38] the compound record lists pIC50 as 7.00 to 7.30

---

tested on: p-CHK1 (Ser345); assay: AlphaLISA SureFire Ultra p-CHK1 (Ser345) cellular assay in HT29 cells; assay type: cell-based; details: Homo sapiens, HT-29, 16 h at 37° C.
Catalogue of IC50 values

{"columns": ["compound", "IC50"],
 "data": [
  ["CN[C@@H]1CC[C@@H](Oc2cccc(F)c2-c2cc(Nc3cnc(C#N)cn3)n[nH]2)C1 [Example 1-43]", "≤ 50 nM"],
  ["N#Cc1cnc(Nc2cc(-c3c(F)cccc3O[C@H]3C[C@H](N)C3)[nH]n2)cn1 [Example 1-13]", "100 to 500 nM"],
  ["CN[C@@H]1CC[C@@H](Oc2ccc(Cl)c(F)c2-c2cc(Nc3cnc(C#N)cn3)n[nH]2)C1 [Example 3-22]", "100 to 500 nM"],
  ["COc1cccc(O[C@H]2CC[C@@H](N)C2)c1-c1cc(Nc2cnc(C#N)cn2)n[nH]1 [Example 2-2]", "500 to 1000 nM"],
  ["COc1cccc(O[C@@H]2CC[C@H]2N)c1-c1cc(Nc2cnc(C#N)cn2)n[nH]1 [Example 3-2]", "≤ 50 nM"]
]}

IC50 on p-CHK1 (Ser345) for N#Cc1cnc(Nc2cc(-c3ccccc3O[C@@H]3CC[C@H](N)C3)[nH]n2)cn1 [Example 1-52] is 100 to 500 nM

IC50 on p-CHK1 (Ser345) for N#Cc1cnc(Nc2cc(-c3ccccc3O[C@H]3CC[C@@H](N)CC3)[nH]n2)cn1 [Example 1-50] is > 1000 nM

IC50 on p-CHK1 (Ser345) for CN[C@@H]1CC[C@@H](Oc2ccc(C)nc2-c2cc(Nc3cnc(C#N)cn3)n[nH]2)C1 [Example 3-45] is ≤ 50 nM

IC50 on p-CHK1 (Ser345) for Cc1ccc(O[C@@H]2CC[C@@H](N)C2)c(-c2cc(Nc3cnc(C#N)cn3)n[nH]2)c1F [Example 3-26] is ≤ 50 nM

IC50 on p-CHK1 (Ser345) for Cc1cccc(-c2cc(Nc3cnc(C#N)cn3)n[nH]2)c1O[C@@H]1CC[C@H](N)C1 [Example 3-12] is > 1000 nM

IC50 on p-CHK1 (Ser345) for COc1cc(F)cc(O[C@@H]2CC[C@H](N)C2)c1-c1cc(Nc2cnc(C#N)cn2)n[nH]1 [Example 1-28] is ≤ 50 nM

IC50 on p-CHK1 (Ser345) for N#Cc1cnc(Nc2cc(-c3c(F)cccc3O[C@@H]3CCC[C@H]3N)[nH]n2)cn1 [Example 3-40] is ≤ 50 nM
